experiment: false positives in methylated H4 peptide AlphaScreen detection – biochemical, cherry-picked samples, artefact control for NSD2 inhibitor project, dose response (AID 1053174);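 further: actives lower the AlphaScreen signal from the preloaded product and count as artifacts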
The whole screen tested about 1,500 compounds, of which about 140 (9.3%) were called active. The entries come from a sample that favours actives as a whole.
endpoint.label: AbsAC35

See these solved cases before continuing.
INSERT INTO results (molecule, endpoint_label, value_reported) VALUES
  ('CCN(CC)c1ccc(/C=C/c2ccc3ccc(OC)cc3[n+]2CC)cc1', 'AbsAC35', '11.4 µM (active)'),
  ('Cc1ccccc1NC1=C/C(=N\S(=O)(=O)c2ccc(C(=O)O)cc2)c2ccccc2C1=O', 'AbsAC35', '11.8 µM (active)'),
  ('O=S(=O)(O)c1cc(Cl)cc(N=Nc2ccc(O)cc2O)c1O', 'AbsAC35', '14.5 µM (active)'),
  ('CN(C=[N+](C)C)c1cccc2c1C(=O)c1ccccc1C2=O', 'AbsAC35', '15.2 µM (active)'),
  ('Nc1ccc(Nc2ccccc2)c(S(=O)(=O)O)c1', 'AbsAC35', '31.6 µM (active)'),
  ('O=C(Oc1ccccc1)c1cc(O)c(O)c(O)c1', 'AbsAC35', '17.2 µM (active)'),
  ('O=S(=O)(O)c1cc(O)c(N=Nc2ccc(O)cc2O)c2ccccc12', 'AbsAC35', '12.8 µM (active)'),
  ('COc1cc(OC)c(OC)cc1CCC(C)NCCC(c1ccccc1)c1ccccc1 (centres undefined)', 'AbsAC35', '11.1 µM (active)');

Now consider a different molecule.
Given the entry `O=C1N=C(Nc2ccccc2Cl)S/C1=C\c1cccc([N+](=O)[O-])c1O` , report its measured AbsAC35. 17.4 µM (active)
